- ASSAY_REMARKS: physchem
- STATED_CONDITIONS: water, thermodynamic from solid
MEASURED_ATTRIBUTE: solubility thermodynamic

Exam item: # lookup: solubility thermodynamic of CC(C)c1cccc(C(C)C)c1O [Propofol]
Marked response: ~1000 µM
